# credit: ChEMBL document CHEMBL1140016

Target: Beta-3 adrenergic receptor (Homo sapiens)
Sequence (P13945 whole entry, looked up): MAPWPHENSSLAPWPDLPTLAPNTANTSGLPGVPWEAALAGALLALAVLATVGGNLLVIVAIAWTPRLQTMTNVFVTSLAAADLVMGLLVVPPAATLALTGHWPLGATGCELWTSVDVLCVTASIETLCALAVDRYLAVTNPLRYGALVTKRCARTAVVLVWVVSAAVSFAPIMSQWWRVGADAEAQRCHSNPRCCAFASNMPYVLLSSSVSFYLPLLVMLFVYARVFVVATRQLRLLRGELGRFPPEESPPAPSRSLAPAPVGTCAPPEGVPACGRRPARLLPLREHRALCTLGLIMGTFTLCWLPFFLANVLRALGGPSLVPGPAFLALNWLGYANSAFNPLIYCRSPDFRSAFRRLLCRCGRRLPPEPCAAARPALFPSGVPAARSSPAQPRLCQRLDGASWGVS
Assay: Intrinsic activity at human cloned adrenergic beta3 receptor expressed in CHO cells assessed as cAMP accumulation relative to isoproterenol
Type: functional, cell-based
Listing of recorded Intrinsic activity by entry.
Response body: numeric value in %, unit text excluded.

| COMPOUND | Intrinsic activity (%) |
| --- | --- |
| COc1ccc([C@@H](Cc2ccccc2)NC[C@H](O)CCc2ccc(O)c(NS(C)(=O)=O)c2)cc1OC | 60 |
| COc1ccc([C@@H](Cc2cccc(Cl)c2)NC[C@@H](O)Cc2ccc(O)c(NS(C)(=O)=O)c2)cc1OC | 68 |

Exam item: What value of measured Intrinsic activity is listed for "COc1ccc([C@@H](Cc2ccccc2)NC[C@@H](O)Cc2ccc(O)c(NS(C)(=O)=O)c2)cc1O" ?
Marked response: 70

Exam item: What value of measured Intrinsic activity is listed for "CS(=O)(=O)Nc1cc(C[C@@H](O)CN[C@@H](CCc2ccccc2)c2ccc(OC(F)F)c(OC(F)F)c2)ccc1O" ?
Marked response: 86

Exam item: What value of measured Intrinsic activity is listed for "CS(=O)(=O)Nc1cc(C[C@H](O)CN[C@H](Cc2ccccc2)c2ccc(Cl)c(Cl)c2)ccc1O" ?
Marked response: 70

Exam item: What value of measured Intrinsic activity is listed for "COc1ccc([C@H](CCc2ccccc2)NC[C@H](O)Cc2ccc(O)c(NS(C)(=O)=O)c2)cc1OC" ?
Marked response: 84

Exam item: What value of measured Intrinsic activity is listed for "COc1ccc(C(NC[C@H](O)c2ccc(O)c(NS(C)(=O)=O)c2F)c2ccc(OC)cc2)cc1" ?
Marked response: 24
